Tested on: H3K18Ac in HB-CLS-2 cells
Assay: H3K18AC in-cell western (ICW) assay
Type: cell-based
Conditions: H3K18Ac in-cell western; read-out: CREBBP ICW IC50
pIC50: −log10 of the molar value.
pIC50 vs 6: at or above is t, below is f.

Consider the worked cases shown below.
CHEM SMILES: CCn1ncc(CN(C)C(=O)c2nc(-c3cnnc(C(=O)NC)c3)nc3ccc(Cl)cc23)c1C
GROUP: f

CHEM SMILES: CNc1[nH]nc2ccc(-c3nc(C(=O)N(C)Cc4cnc(C5CC5)n4C)c4cc(COC)ccc4n3)cc12
GROUP: t

CHEM SMILES: CCn1ncc(CN(C)C(=O)c2nc(-c3ccc(OCCCNC(=O)OC(C)(C)C)c(OC)c3)nc3ccc(Cl)cc23)c1C
GROUP: f

Query compound follows.
q: Has CCc1ncc(CN(C)C(=O)c2cc(-c3ccc(NCCNC)c(F)n3)nc3ccc(Cl)cc23)n1C a recorded pIC50 greater than or equal to 6?
a: t

###

Tested on: H3K18Ac in HB-CLS-2 cells
Assay: H3K18AC in-cell western (ICW) assay
Type: cell-based
Details: H3K18Ac in-cell western; read-out: CREBBP ICW IC50
Collected IC50 values appear next to each entry.
Kindly answer with a numeric value in nM, unit omitted.

Guide cases for IC50, answers given:
CHEM SMILES: CCn1ncc(CN(C)C(=O)c2nc(-c3cc(Cl)c4nc[nH]c4c3)nc3ccc(COC)cc23)c1C
MEASUREMENT TARGET: H3K18Ac in HB-CLS-2 cells
UNIT LABEL: nM
IC50: 57

CHEM SMILES: CCc1ncc(CN(C)C(=O)c2cc(-c3cc(C(=O)NC)n(C)n3)nc3ccc(Cl)cc23)n1C
MEASUREMENT TARGET: H3K18Ac in HB-CLS-2 cells
UNIT LABEL: nM
IC50: 104

CHEM SMILES: CCn1ncc(CN(C)C(=O)c2nc(-c3cc(Cl)cc(NCCCNC)c3)nc3ccc(Cl)cc23)c1C
MEASUREMENT TARGET: H3K18Ac in HB-CLS-2 cells
UNIT LABEL: nM
IC50: 480

CHEM SMILES: CCn1ncc(CN(C)C(=O)c2nc(-c3cc4nc[nH]c4cc3OC)nc3ccc(Cl)cc23)c1C
MEASUREMENT TARGET: H3K18Ac in HB-CLS-2 cells
UNIT LABEL: nM
IC50: 520

CHEM SMILES: CCn1ncc(CN(C)C(=O)c2cc(-c3ccc(NC4CN(CC#N)C4)c(C)n3)nc3ccc(Cl)cc23)c1C
MEASUREMENT TARGET: H3K18Ac in HB-CLS-2 cells
UNIT LABEL: nM
IC50: 143

Assay H3K18Ac in HB-CLS-2 cells, sample CCn1ncc(CN(C)C(=O)c2nc(-c3cc4[nH]cnc4cc3C)nc3ccc(Cl)cc23)c1C , IC50 read: 170

Assay H3K18Ac in HB-CLS-2 cells, sample CCc1ncc(CN(C)C(=O)c2nc(-c3cc(N)c4cn[nH]c4c3)nc3ccc(COC)cc23)n1C , IC50 read: 371

###

Collected IC50 values appear next to each entry.
Biological target: CREBBP (1084-1701) (Homo sapiens)
Construct: measured in the following biochemical assay using CREBBP (1084-1701); purchased
Sequence (Q92793 1084-1701): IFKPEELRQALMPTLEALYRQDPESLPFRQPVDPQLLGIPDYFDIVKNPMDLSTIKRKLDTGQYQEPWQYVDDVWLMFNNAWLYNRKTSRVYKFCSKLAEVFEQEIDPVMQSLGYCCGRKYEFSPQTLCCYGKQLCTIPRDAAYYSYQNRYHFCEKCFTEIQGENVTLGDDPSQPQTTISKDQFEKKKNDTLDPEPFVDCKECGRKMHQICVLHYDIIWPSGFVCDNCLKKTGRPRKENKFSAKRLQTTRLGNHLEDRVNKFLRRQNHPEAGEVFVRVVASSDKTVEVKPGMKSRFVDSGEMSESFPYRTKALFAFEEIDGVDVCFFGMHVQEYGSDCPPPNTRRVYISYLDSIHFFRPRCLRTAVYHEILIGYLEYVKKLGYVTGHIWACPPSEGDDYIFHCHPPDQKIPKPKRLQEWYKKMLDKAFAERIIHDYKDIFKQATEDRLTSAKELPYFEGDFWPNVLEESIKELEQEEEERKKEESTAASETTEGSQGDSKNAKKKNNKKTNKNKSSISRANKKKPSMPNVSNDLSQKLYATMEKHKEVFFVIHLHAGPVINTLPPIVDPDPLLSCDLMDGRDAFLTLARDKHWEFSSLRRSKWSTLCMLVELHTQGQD
Experiment: Biochemical assay for CREBBP (1084-1701), SAMDI
Details: SAMDI, read-out: CREBBP Biochemistry IC50
Kindly answer with a numeric value in nM, unit omitted.

CHEM SMILES: CCc1nc(-c2cc(C(=O)N(C)Cc3cnc(CC)n3C)c3cc(COC)ccc3n2)ccc1NCCNC
MEASUREMENT TARGET: CREBBP (1084-1701) (Homo sapiens)
IC50 / nM: 59.8

Assay CREBBP (1084-1701) (Homo sapiens), sample CCc1ncc(CN(C)C(=O)c2cc(-c3cc(C(=O)NC)n(C)n3)nc3ccc(Cl)cc23)n1C , IC50 read: 15.2

Assay CREBBP (1084-1701) (Homo sapiens), sample CCn1ncc(CN(C)C(=O)c2nc(-c3ccc(OCCO)cc3Cl)nc3ccc(Cl)cc23)c1C , IC50 read: 150

Assay CREBBP (1084-1701) (Homo sapiens), sample CCn1ncc(CN(C)C(=O)c2cc(-c3cncc(Cl)c3)nc3ccc(Cl)cc23)c1C , IC50 read: 12000

Assay CREBBP (1084-1701) (Homo sapiens), sample CCn1ncc(CN(C)C(=O)c2cc(-c3cc(N[C@@H]4CCNC4)cc(C)n3)nc3ccc(Cl)cc23)c1C , IC50 read: 29.9

Assay CREBBP (1084-1701) (Homo sapiens), sample CCn1ncc(CN(CCO)C(=O)c2nc(-c3cccc(Cl)c3)nc3ccc(Cl)cc23)c1C , IC50 read: 420
